- system: V-ATPase A (V-type proton ATPase catalytic subunit A) (Caenorhabditis elegans, UniProt Q9XW92)
- Sequence (Q9XW92 whole entry): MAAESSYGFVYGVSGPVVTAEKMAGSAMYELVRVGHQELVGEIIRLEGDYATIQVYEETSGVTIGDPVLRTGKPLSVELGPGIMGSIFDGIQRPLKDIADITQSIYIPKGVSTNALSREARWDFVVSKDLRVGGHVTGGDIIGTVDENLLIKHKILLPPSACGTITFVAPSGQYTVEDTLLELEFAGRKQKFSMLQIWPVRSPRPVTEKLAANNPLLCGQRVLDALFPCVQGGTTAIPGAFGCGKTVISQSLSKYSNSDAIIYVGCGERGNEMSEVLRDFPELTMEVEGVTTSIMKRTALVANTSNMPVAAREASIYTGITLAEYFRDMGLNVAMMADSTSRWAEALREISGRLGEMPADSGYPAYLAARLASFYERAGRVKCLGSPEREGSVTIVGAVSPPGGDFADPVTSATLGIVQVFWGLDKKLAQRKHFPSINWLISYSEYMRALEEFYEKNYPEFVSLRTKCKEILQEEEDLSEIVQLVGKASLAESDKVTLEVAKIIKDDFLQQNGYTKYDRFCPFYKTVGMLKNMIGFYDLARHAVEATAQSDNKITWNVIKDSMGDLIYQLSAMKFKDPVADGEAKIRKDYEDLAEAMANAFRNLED
- procedure-summary: microscale thermophoresis
- Type: binding
observed-property: Kd (nM)
The response must be a number in nM with no trailing unit.

[in] Report Kd for CCCCCCCCCC(C)=O [2-undecanone]
[out] 302

----------
- system: Hsp70 A (heat shock 70 kDa protein A) (Caenorhabditis elegans)
- Sequence (P09446 whole entry): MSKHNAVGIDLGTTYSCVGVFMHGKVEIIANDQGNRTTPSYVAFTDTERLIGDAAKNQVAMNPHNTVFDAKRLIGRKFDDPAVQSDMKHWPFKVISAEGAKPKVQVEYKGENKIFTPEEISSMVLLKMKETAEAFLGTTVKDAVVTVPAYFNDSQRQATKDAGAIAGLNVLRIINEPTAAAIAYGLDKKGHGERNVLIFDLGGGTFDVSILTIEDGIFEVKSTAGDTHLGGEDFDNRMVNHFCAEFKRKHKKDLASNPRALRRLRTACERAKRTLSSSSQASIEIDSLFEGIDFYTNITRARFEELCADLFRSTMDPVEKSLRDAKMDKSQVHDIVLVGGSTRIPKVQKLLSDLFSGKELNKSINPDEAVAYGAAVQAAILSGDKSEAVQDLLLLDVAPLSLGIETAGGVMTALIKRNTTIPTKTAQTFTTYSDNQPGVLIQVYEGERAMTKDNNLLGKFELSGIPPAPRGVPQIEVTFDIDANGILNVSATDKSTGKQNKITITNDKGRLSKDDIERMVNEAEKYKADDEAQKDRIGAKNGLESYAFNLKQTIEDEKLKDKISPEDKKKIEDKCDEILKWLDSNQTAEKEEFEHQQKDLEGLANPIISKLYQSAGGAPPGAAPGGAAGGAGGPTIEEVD
observed-property: pKd
Hey, just a heads up that pKd is the negative log base 10 of the concentration in molar.

[in] Report pKd for CCCCCCCCCC(C)=O
[out] 6.93
